- TESTED_SYSTEM: Protein skinhead-1 (Caenorhabditis elegans)
- Sequence (P34707 whole entry): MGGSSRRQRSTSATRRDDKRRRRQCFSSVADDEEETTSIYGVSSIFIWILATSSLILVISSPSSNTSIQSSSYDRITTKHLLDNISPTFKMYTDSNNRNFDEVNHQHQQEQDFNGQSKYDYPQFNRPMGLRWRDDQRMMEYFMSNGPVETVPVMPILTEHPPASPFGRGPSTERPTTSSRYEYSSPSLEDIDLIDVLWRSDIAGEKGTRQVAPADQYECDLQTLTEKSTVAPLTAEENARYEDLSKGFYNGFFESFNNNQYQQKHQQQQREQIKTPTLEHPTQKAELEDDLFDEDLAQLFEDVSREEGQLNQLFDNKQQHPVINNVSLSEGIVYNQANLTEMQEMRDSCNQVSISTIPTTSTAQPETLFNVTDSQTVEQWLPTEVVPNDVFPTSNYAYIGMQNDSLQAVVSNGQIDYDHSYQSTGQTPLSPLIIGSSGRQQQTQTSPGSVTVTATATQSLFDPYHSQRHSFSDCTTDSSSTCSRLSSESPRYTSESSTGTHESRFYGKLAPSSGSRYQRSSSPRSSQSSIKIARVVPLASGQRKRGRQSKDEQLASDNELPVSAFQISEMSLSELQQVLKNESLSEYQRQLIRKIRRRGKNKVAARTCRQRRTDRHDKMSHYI
- Format: functional
Activity calls are given as the source filed them.
Reported values of IC50 for individual entries
MEASUREMENT_LABEL: IC50

>>> result("Clc1cccc(-c2nc3ccc(Br)cn3c2Cc2ccsc2)c1")
"54.8 µM (inactive)"
>>> result("O=C(COc1ncnc2c(Cl)cc(Cl)cc12)N1CCCCC1")
"> 100 µM (inactive)"
>>> result("COc1ccc(-c2ccc(/C=C3/C(=N)N4C(C)=CSC4=NC3=O)o2)c([N+](=O)[O-])c1")
"> 100 µM (inactive)"
>>> result("Clc1ncc(CSc2ccccc2)s1")
"84.8 µM (inactive)"
>>> result("O=C(COC(=O)[C@@H]1CCCN1C(=O)c1cccs1)NCCc1ccccc1")
"> 100 µM (inactive)"
>>> result("COc1ccc(-c2nnc(-c3ccc(Br)o3)o2)cc1OC")
"> 100 µM (inactive)"
>>> result("CN(C)C(=O)c1cccc(-c2cnc3c(NC=O)cc(-c4ccc(N(C)C)cc4)cn23)c1")
"> 100 µM (inactive)"
>>> result("CCN(C(=O)CN1C(=O)S/C(=C\\c2cccc(Cl)c2)C1=O)C1CCS(=O)(=O)C1 (stereo unspecified)")
"> 100 µM (inactive)"
>>> result("Fc1ccc(-c2nnn(Cc3nc4ccccc4s3)n2)cc1")
"80.1 µM (inactive)"
>>> result("COc1cc2ccccc2cc1C(=O)Nc1ccncc1")
"52.3 µM (inactive)"
>>> result("c1ccc2c(c1)NC(c1ccncc1)n1c-2nc2ccccc21 (stereo unspecified)")
"> 100 µM (inactive)"

====

For reference, IC50 measured on UniProtKB P04406:
MEASUREMENT_LABEL: IC50

>>> result("NNC(=O)c1cc(-c2ccc(F)cc2F)[nH]n1")
"> 10 µM (inconclusive)"
>>> result("COc1ccccc1NS(=O)(=O)c1ccc(OC)c2ncccc12")
"> 100 µM (not active)"
>>> result("CCOC(=O)c1cc(-c2cccc(C(F)(F)F)c2)n[nH]1")
"> 100 µM (not active)"
>>> result("O=C1C(Cl)=C(N2CCN(CCO)CC2)C(=O)N1c1ccc(Cl)c(Cl)c1")
"> 100 µM (not active)"
>>> result("O=C1C2CCCCC2C(=O)N1c1nc(CCc2ccccc2)n[nH]1 (stereo not given)")
"> 100 µM (not active)"
>>> result("O=C(O)CN1C(=O)S/C(=C\\c2ccc(O)cc2)C1=O")
"> 100 µM (not active)"
>>> result("COc1ccc(N2CCN(C3=C(Cl)C(=O)N(c4ccnc(Cl)c4)C3=O)CC2)cc1")
"> 50 µM (inconclusive)"
>>> result("Cc1ccccc1N1CCN(C2=C(Cl)C(=O)N(c3ccc(Cl)c(Cl)c3)C2=O)CC1")
"> 100 µM (not active)"
>>> result("O=C1C(Cl)=C(N2CCOCC2)C(=O)N1c1ccccc1Cl")
"> 10 µM (inconclusive)"
>>> result("COc1ccc(N2CCN(C3=C(Cl)C(=O)N(c4ccc(C(F)(F)F)cc4)C3=O)CC2)cc1")
"> 12.5 µM (inconclusive)"
>>> result("CCOc1cc(C)ccc1S(=O)(=O)Nc1cccnc1")
"> 100 µM (not active)"
>>> result("O=C(O)c1cccc(C(=O)Nc2cccc(NC(=O)C3CCCO3)c2)c1 (stereo not given)")
"> 100 µM (not active)"
>>> result("Cc1ccc(-n2c(=O)[nH]c(=O)n([C@H](C(N)=O)C(C)C)c2=O)cc1")
"> 100 µM (not active)"
>>> result("O=C(O)c1ccc(N2C(=O)c3ccccc3C2=O)cc1")
"> 100 µM (not active)"
>>> result("O=C(O)/C=C/C(=O)Nc1ccc2c(c1)C(=O)c1ccccc1C2=O")
"> 100 µM (not active)"
